test system: human mGluR2 (Homo sapiens, UniProt Q14416)
Construct: expressed in transfected cells; host or cells: CHO cells (membranes)
Sequence (Q14416 19-872): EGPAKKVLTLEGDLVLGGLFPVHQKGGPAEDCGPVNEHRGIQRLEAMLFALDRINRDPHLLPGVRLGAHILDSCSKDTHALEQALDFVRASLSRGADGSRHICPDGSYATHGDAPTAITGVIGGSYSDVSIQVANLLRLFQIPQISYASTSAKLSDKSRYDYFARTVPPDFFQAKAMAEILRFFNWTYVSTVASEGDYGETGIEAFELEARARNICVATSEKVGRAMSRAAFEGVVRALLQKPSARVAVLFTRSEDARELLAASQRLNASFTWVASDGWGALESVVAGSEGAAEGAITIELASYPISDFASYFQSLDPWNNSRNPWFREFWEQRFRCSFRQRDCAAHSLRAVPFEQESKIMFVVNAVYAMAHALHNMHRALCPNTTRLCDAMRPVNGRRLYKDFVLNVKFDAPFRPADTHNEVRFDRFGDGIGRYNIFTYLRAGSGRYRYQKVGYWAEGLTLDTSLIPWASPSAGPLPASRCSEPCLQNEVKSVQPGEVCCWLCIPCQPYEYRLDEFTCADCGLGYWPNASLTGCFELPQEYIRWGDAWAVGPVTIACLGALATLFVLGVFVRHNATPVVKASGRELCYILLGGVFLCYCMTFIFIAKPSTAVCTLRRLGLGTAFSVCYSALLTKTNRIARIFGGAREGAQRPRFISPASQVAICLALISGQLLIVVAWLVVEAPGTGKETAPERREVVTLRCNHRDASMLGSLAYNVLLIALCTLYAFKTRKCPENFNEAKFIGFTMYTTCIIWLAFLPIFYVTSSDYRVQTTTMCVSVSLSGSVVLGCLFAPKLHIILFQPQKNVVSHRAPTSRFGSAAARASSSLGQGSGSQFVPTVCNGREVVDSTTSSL
method summary: [35S]GTPγS binding assay (PAM assay)
Assay type: biochemical
condition summary: membranes from CHO cells transfected with human mGluR2; in presence of glutamate at predetermined EC25 concentration; averages of duplicate values of 11-concentration response curves; read-out: GTPgS - hR2 PAM pEC50 (converted)
Strictly below 0.4 µM in EC50: Fulfilled. Otherwise: Not fulfilled.

Check if EC50 falls below 0.4 µM for N#Cc1c(N2CCC(F)(c3ccccc3)CC2)ccn(CC2CC2)c1=O [Compound 1] .
Fulfilled

Find out if reported EC50 for CCCCn1ccc(N2CCC(F)(c3ccccc3)CC2)c(C#N)c1=O [Compound 2] is less than 0.4 µM
Fulfilled

Confirm or reject: EC50 of N#Cc1c(N2CCC(c3ccccc3)CC2)ccn(CC2CC2)c1=O [Compound 8] lies strictly below 0.4 µM
Fulfilled

Below 0.4 µM on EC50? Entry N#Cc1c(N2CCC(CF)(c3ccccc3)CC2)ccn(CC2CC2)c1=O [Compound 5]
Not fulfilled

Please determine if CCCCn1ccc(N2CCC(OCCF)(c3ccccc3)CC2)c(C#N)c1=O [Compound 7] is below 0.4 µM in terms of EC50.
Fulfilled

Identify whether the compound CCCCn1ccc(N2CCC(CF)(c3ccccc3)CC2)c(C#N)c1=O [Compound 6] records EC50 below 0.4 µM.
Not fulfilled

Below 0.4 µM on EC50? Entry CCCCn1ccc(N2CCC(CO)(c3ccccc3)CC2)c(C#N)c1=O [Compound 4]
Not fulfilled

The values you see were collected from patent US20100063092A1.
